Recorded values, source PubChem BioAssay (NCI).

- Test system: NCI-H460 lung
- ASSAY PROTOCOL: NCI tumour cell line growth inhibition, 48 h
READOUT TYPE: TGI

// worked examples, TGI included
O=C1NC(=NCCCc2ccccc2)S/C1=C\c1ccc2ncccc2c1: 11.8 µM
Nc1ncnc2c1ncn2C1OC(CO)C(O)C1N (stereo not given): > 100 µM
CN(CC(=O)N(Cc1ccc(C2CCCCC2)cc1)c1ccc(C(=O)O)cc1)S(=O)(=O)c1c(F)c(F)c(F)c(F)c1F: 10.4 µM
COc1ccccc1C[C@@H]1OC2(C=CC(=O)C=C2)O[C@H]1Cc1ccccc1OC: > 50 µM
CC(C)C1N(C)c2ccc(Cl)cc2[C@H]2c3ccccc3CCN12 (stereo not given in full): > 100 µM

Input line: Give the reported TGI for this compound. Cc1cc(N2CCN(C)CC2)n2nc(-c3ccc(Cl)cc3)nc2n1
Output line: > 100 µM

Input line: Give the reported TGI for this compound. O=C1Cc2cc(C(=O)NC3C[C@H]4CC[C@@H](C3)N4S(=O)(=O)CC3CCN(CCCC(F)(F)F)CC3)c(Cl)cc2N1 (stereo not given in full)
Output line: > 100 µM

Input line: Give the reported TGI for this compound. O=[N+]([O-])c1ccc(O)c(/C=N/NC(=S)N2CCCCC2)c1
Output line: 38.3 µM

Input line: Give the reported TGI for this compound. CCn1c(-c2nonc2N)nc2cncc(C(=O)N3CC[C@H](N)C3)c21
Output line: > 25 µM

Input line: Give the reported TGI for this compound. CN1c2ccccc2N(C(=O)c2ccccc2)C(CC(=O)O)c2cccn21 (stereo not given)
Output line: > 100 µM

----------
- Test system: NCI-H460 lung
- ASSAY PROTOCOL: NCI tumour cell line growth inhibition, 48 h
READOUT TYPE: TGI

Input line: Give the reported TGI for this compound. C/C(=C\c1csc(C)n1)[C@@H]1C[C@@H]2O[C@@H]2CCC[C@H](C)[C@H](O)[C@@H](C)C(=O)C(C)(C)[C@@H](O)CC(=O)O1
Output line: > 100 µM

Input line: Give the reported TGI for this compound. O=c1[nH]cnc2c1nnn2CCCCCCCCCCCCn1nnc2c(=O)[nH]cnc21
Output line: > 100 µM

Input line: Give the reported TGI for this compound. CN(C)c1cccc(NC2=NCCO2)c1
Output line: > 100 µM

Input line: Give the reported TGI for this compound. CCOC(=O)C1(C)CCCCC(=O)N1 (stereo not given)
Output line: > 100 µM

Input line: Give the reported TGI for this compound. O=C(CN1C(=O)S/C(=C\C(Cl)=C\c2ccccc2)C1=O)NC1C=CS(=O)(=O)C1 (stereo not given)
Output line: 6.36 µM

----------
- Tested on: NCI/ADR-RES ovarian
- ASSAY PROTOCOL: NCI tumour cell line growth inhibition, 48 h
READOUT TYPE: TGI (µM)
// return numeric value only (unit: µM, not printed)

NS(=O)(=O)OCCCCCCCOS(N)(=O)=O: 1050

Then this compound:
Input line: Give the reported TGI for this compound. NC(=S)c1c(N)n(C2OC(CO)C(O)C2O)c2ncnc(N)c12 (stereo not given)
Output line: 1.27

----------
- Tested on: LOX IMVI melanoma
- ASSAY PROTOCOL: NCI tumour cell line growth inhibition, 48 h
READOUT TYPE: TGI

// worked examples, TGI included
CNc1ncc(-c2nnnn2-c2ccccc2)c(CN(C)C)n1: > 100 µM
CN(Cc1cnc2nc(N)nc(N)c2n1)c1ccc(C(=O)NC(CCC(=O)O)C(=O)O)cc1Br (stereo unspecified): 2.1 µM
c1ccc2c(c1)cc1n2CC2CN=NC12 (stereo unspecified): > 100 µM
COC(=O)CSSCc1ccc([N+](=O)[O-])cc1: 30.3 µM
COc1cc(C2c3cc4c(cc3OC(NCCO)C2C)OCO4)cc(OC)c1OC (stereo unspecified): > 100 µM
COc1ccc2c(OCc3nnc4ccc(-c5ccccc5)nn34)ccnc2c1: > 100 µM
CC(=N\N)/C(C)=N/N=C(C)/C(C)=N/N=C(C)/C(C)=N/N: > 100 µM
COc1ccc(-n2sc3ncccc3c2=O)cc1: > 100 µM
CCC(=O)c1c(C(F)(F)F)n([O-])c2cc(F)c(F)cc2[n+]1=O: 0.221 µM
CN(c1ccccc1)c1c(Cl)c(=O)oc2c1ccc1occc12: > 100 µM

Input line: Give the reported TGI for this compound. CCc1nc(N)nc(N)c1-c1ccc(N2CCNCC2)cc1
Output line: > 100 µM

----------
- Test system: SK-MEL-5 melanoma
- ASSAY PROTOCOL: NCI tumour cell line growth inhibition, 48 h
READOUT TYPE: TGI (µM)
// return numeric value only (unit: µM, not printed)

COc1ccc(C(OCC2OC(n3ccc(NC(=O)c4ccccc4)nc3=O)CC2OP2(=S)SCCS2)(c2ccccc2)c2ccc(OC)cc2)cc1 (stereo not drawn): 43.9

Input line: Give the reported TGI for this compound. Cc1cc(=O)[nH]c(NN2C(Cl)C(=O)C2c2cccc(Cl)c2)n1 (stereo not drawn)
Output line: 34.2

Input line: Give the reported TGI for this compound. C=CC(=O)N1CC2(CC(n3nc(-c4ccc5c(cnn5C)c4)c(-c4c(Cl)c(C)cc5[nH]ncc45)c3C)C2)C1
Output line: 3.02

Input line: Give the reported TGI for this compound. CC(=O)[O][Hg][c]1c(C)c(C)cc(C)c1C
Output line: 4.66

Input line: Give the reported TGI for this compound. CC(=O)O[C@H]1CC[C@@]2(C)C(=CC[C@@H]3C2CC[C@]2(C)Nc4nc5ccccc5cc4CC32)C1 (stereo partly drawn)
Output line: 15.4

Input line: Give the reported TGI for this compound. COc1cc(-c2ccccc2N)c2cccnc2c1OC
Output line: 26.3

----------
Overview of recorded TGI for various molecules
- Tested on: TK-10 renal
- ASSAY PROTOCOL: NCI tumour cell line growth inhibition, 48 h

// worked examples, TGI included
Cn1c(N/N=C/c2ccccc2)nc(-c2ccc([N+](=O)[O-])cc2)c(C#N)c1=O: > 100 µM
CC(=O)C1=C(O)C2C3c4c[nH]c5cccc(c45)CC3C(C)(C)N2C1=O (stereo not given): > 100 µM
O=C(Nc1nc2c(ncn2C2OC(CO)C(O)C2O)c(=O)[nH]1)c1ccccc1 (stereo not given): > 100 µM

Input line: Give the reported TGI for this molecule. CC(C)(C)OC(=O)NCCCCC(NC(=O)c1ccccc1)C(N)=O (stereo not given)
Output line: > 100 µM

Input line: Give the reported TGI for this molecule. C=CCOCn1cc(C)c(=O)[nH]c1=O
Output line: > 100 µM

Input line: Give the reported TGI for this molecule. CCCCCCC[CH2][Sn]1([CH2]CCCCCCC)[O]C(=O)c2cccnc2[O]1
Output line: > 100 µM

Input line: Give the reported TGI for this molecule. CC[C@H](C)[C@H](NC(=O)CN(C)C)C(=O)N(C)[C@H](C[C@@H](OC(C)=O)c1nc(C(=O)NC23CC(C(=O)OC)(C2)C3)cs1)C(C)C
Output line: > 25 µM

Input line: Give the reported TGI for this molecule. Cc1ccc(S(=O)(=O)NC(CN)C(=O)O)cc1 (stereo not given)
Output line: > 100 µM

Input line: Give the reported TGI for this molecule. O=C(CN1C(=O)S/C(=C\C(Cl)=C\c2ccccc2)C1=O)NC1C=CS(=O)(=O)C1 (stereo not given)
Output line: 6.61 µM

Input line: Give the reported TGI for this molecule. Cc1cc(=O)[nH]c(NN2C(Cl)C(=O)C2c2cccc(Cl)c2)n1 (stereo not given)
Output line: > 100 µM

----------
Overview of recorded TGI for various molecules
- System: SN12C renal
- ASSAY PROTOCOL: NCI tumour cell line growth inhibition, 48 h

C[N+]1(CCN[N+]2(C)CCCCC2)CCc2ccccc2C1 (stereo not given): > 100 µM
O=[N+]([O-])c1ccc(O)c(/C=N/NC(=S)N2CCCCC2)c1: > 41.9 µM
COc1cc(C2c3cc4c(cc3OC(N3CCNCC3)C2C)OCO4)cc(OC)c1OC (stereo not given): > 53.2 µM

Input line: Give the reported TGI for this molecule. O=C(OCC(Cl)(Cl)Cl)O[C@@H]1CCCC1(c1ccccc1)c1ccccc1
Output line: > 100 µM

Input line: Give the reported TGI for this molecule. CCCCCCC[CH2][Sn]1([CH2]CCCCCCC)[O]C(=O)c2cccnc2[O]1
Output line: > 100 µM

----------
- System: A549 NSCLC
- ASSAY PROTOCOL: NCI tumour cell line growth inhibition, 48 h; in the data active = GI50 below about 0.43 µM; inactive = the rest
Answer with one of the outcomes active, inactive

Consider the worked cases shown below.
CCOC(=O)c1cnc2c(C)cccc2c1Nc1ccc(C(C)=O)cc1: inactive
O=C1NC(=NCCCc2ccccc2)S/C1=C\c1ccc2ncccc2c1: inactive
COc1cc2nc3cc([N+](=O)[O-])ccc3c(NCCNCC(C)(C)O)c2cc1OC: inactive
CO[C@H]1C[C@@H]2CC[C@@H](C)[C@@](O)(O2)C(=O)C(=O)N2CCCC[C@H]2C(=O)O[C@H]([C@H](C)C[C@@H]2CC[C@@H](OCCO)[C@H](OC)C2)CC(=O)[C@H](C)C=C(C)[C@@H](O)[C@@H](OC)C(=O)[C@H](C)C[C@H](C)/C=C/C=C/C=C1C: active
CCC(=O)c1c(C(F)(F)F)n([O-])c2cc(F)c(F)cc2[n+]1=O: inactive

API: the following record is the query input.
Input line: Tell me the assay call for CCCCCCCCCCCC[n+]1ccc2ccccc2c1 please.
Output line: inactive
